These measurements were taken from PubChem BioAssay.

method: thallium flux activation in parental CHO cells, counter-screen for KCNQ1 potentiator project (AID 493006);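 on activation: fluorescence ratio of max minus min over baseline after K+ and Tl+ depolarization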
condition.info: parental CHO-K1 cells, FluxOR thallium flux, at 10 µM
The source made the active and inactive calls.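 How the source made its calls: active means duplicate-averaged activation above buffer control mean plus 5 SD of those controls; inactive means the rest.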
Possible outcomes: active, inactive

molecule=CSc1nc(Nc2ccc(Cl)cc2)c(C#N)c(=O)[nH]1 class_label=inactive
molecule=CC1CCN(C(=S)NC(=O)c2cccs2)CC1 class_label=active
molecule=Cc1cc(C)cc(OCC(=O)NNC(=O)c2cc3ccccc3o2)c1 class_label=inactive
molecule=O=C(NC(=S)Nc1ccc(N2CCCCC2)cc1)c1cccs1 class_label=active
molecule=S=c1nc[nH]c2c1cnn2-c1ccccc1 class_label=active
molecule="COc1cc2c(cc1OC)C(C)N(C(=S)NC(=O)c1ccccc1)CC2 (stereo unspecified)" class_label=active
molecule=Cc1[nH][nH]c(=O)c1C(c1ccc(-c2ccc(Cl)c(Cl)c2)o1)c1c(C)[nH][nH]c1=O class_label=inactive
molecule=O=C(NC(=S)N1CCN(C/C=C/c2ccccc2)CC1)c1c(F)cccc1F class_label=active
molecule=Cc1ccc(C)c(SCC(=O)NC(=O)Nc2ccc3c(c2)OCCO3)c1 class_label=inactive
molecule=CCCCn1c(=S)[nH]c2ncccc2c1=O class_label=inactive
molecule=Cc1nc(-c2nc(-c3c(C(=O)NNC(=O)c4ccc(Cl)cc4)noc3C)cs2)cs1 class_label=active

----------
target.or.system: Potassium voltage-gated channel subfamily KQT member 1 (Homo sapiens) (UniProt P51787)
Sequence (P51787 whole entry, looked up): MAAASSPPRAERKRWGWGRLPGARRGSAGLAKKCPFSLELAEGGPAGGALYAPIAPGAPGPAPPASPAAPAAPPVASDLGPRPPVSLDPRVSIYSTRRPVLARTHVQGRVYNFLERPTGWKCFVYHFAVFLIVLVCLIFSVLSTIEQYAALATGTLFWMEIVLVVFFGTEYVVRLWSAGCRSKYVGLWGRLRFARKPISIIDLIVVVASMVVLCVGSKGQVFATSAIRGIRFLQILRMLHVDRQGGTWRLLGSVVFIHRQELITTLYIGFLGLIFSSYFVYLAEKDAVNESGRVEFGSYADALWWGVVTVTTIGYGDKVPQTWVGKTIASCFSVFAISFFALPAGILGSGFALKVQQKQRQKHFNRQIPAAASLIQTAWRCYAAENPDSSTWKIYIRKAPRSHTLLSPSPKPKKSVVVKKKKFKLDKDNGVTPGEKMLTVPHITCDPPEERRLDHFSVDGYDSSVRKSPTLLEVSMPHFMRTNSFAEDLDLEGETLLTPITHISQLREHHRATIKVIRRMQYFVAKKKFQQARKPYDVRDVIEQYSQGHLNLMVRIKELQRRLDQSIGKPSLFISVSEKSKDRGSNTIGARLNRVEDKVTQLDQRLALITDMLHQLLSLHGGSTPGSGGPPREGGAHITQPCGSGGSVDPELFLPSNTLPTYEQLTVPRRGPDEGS
method: KCNQ1 channel current potentiators, confirmation, orthogonal assay for KCNQ1 potentiator project, IonWorks patch clamp, KCNQ1-CHO cells (AID 493184)
condition.info: automated patch clamp current, at 10 µM; stronger effect = higher value
The source made the active and inactive calls.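 Rule for the calls: active = current rise at least 3 SD above the untreated control mean in each of two repeat wells; inactive = the rest.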
property.name: current potentiation

compound=CCOC(=O)c1c(NC(=S)NCc2ccccc2)sc2c1CCN(C(=O)OCC)C2 property_name="current potentiation" observed_result=inactive
compound=O=C1C(=O)N(CCCc2ccccc2)c2ccccc21 property_name="current potentiation" observed_result=inactive
compound=COc1cc(/C=N/Nc2snc(SC)c2C#N)ccc1O property_name="current potentiation" observed_result=inactive
compound=O=C(NC(=S)N1CCN(c2ccc(F)cc2)CC1)c1cccs1 property_name="current potentiation" observed_result=inactive
compound=O=[N+]([O-])c1cccc(-c2ccc3nnc(SCc4ccccn4)n3n2)c1 property_name="current potentiation" observed_result=inactive
compound=COc1cccc2sc(Nc3nnc(-c4ccccc4Cl)o3)nc12 property_name="current potentiation" observed_result=inactive
compound=COCCCn1c(=S)[nH]c2sc3c(c2c1=O)CCCC3 property_name="current potentiation" observed_result=inactive
compound=Cc1ccc(-c2csc(NC(=S)NC(=O)c3ccco3)n2)cc1 property_name="current potentiation" observed_result=inactive
compound=O=C(c1ccc(Cl)cc1)c1c[nH]c(C(=O)C(Cl)(Cl)Cl)c1 property_name="current potentiation" observed_result=inactive
compound=Cc1ccc(C(=O)N/C(=C\c2ccc(-c3ccccc3[N+](=O)[O-])o2)C(=O)NCCCN2CCOCC2)cc1 property_name="current potentiation" observed_result=inactive
compound=COc1ccc(-c2cc(-c3ccccc3)c(C#N)c(=S)[nH]2)cc1 property_name="current potentiation" observed_result=inactive
compound=O=C(NN=C1c2ccccc2-c2ccccc21)c1ccccc1Br property_name="current potentiation" observed_result=inactive
compound=CCc1nnc(NC(=O)c2ccc(S(=O)(=O)N(CC)Cc3ccccc3)cc2)o1 property_name="current potentiation" observed_result=inactive
compound="O=C(c1ccc(-c2ccccc2)cc1)C1CCCN(C(=O)Cn2cncn2)C1 (configuration not stated)" property_name="current potentiation" observed_result=inactive
compound="N=c1sccn1CC(=O)N1N=C(c2ccc(Cl)cc2)CC1c1ccco1 (configuration not stated)" property_name="current potentiation" observed_result=inactive
compound="CS(=O)(=O)NN1C(=O)c2ccccc2NC1c1ccccc1F (configuration not stated)" property_name="current potentiation" observed_result=inactive
compound=Cc1ccc(C(=O)OCC(=O)Nc2sc3c(c2C#N)CCCC3)cc1NC(=O)c1ccco1 property_name="current potentiation" observed_result=inactive
compound="COc1cccc(C2C3=C(N=c4s/c(=C\\c5ccc(OCC(=O)O)cc5)c(=O)n42)c2ccccc2CC3)c1 (configuration not stated)" property_name="current potentiation" observed_result=inactive
compound=COC(=O)c1ccc(N2CCN(S(=O)(=O)c3ccc(Br)cc3)CC2)c([N+](=O)[O-])c1 property_name="current potentiation" observed_result=inactive
compound=S=C(Nc1ccc(Cl)cc1)c1nc2ccccc2s1 property_name="current potentiation" observed_result=inactive
compound=COc1ccc(O)c(C(=O)c2cnn(-c3ccc(Cl)cc3)c2)c1 property_name="current potentiation" observed_result=inactive
compound=O=C(O)CCC(=O)Nc1ccc(S(=O)(=O)c2ccc(NC(=O)CCC(=O)O)cc2)cc1 property_name="current potentiation" observed_result=inactive
